Values from patent US20100291106A1

# test_target: T1, human complement C3b protein (human, UniProt P01024 23-667; P01024 749-1663)
# T1 construct: Purified plasma C3b (Complement Technology, Quidel); Depending on the assay it was captured by an anti-C3d antibody, coated, biotinylated or coupled to beads; also called human C3b; huC3b
# T1 sequence (P01024 23-667 P314L, chain 1 of 2): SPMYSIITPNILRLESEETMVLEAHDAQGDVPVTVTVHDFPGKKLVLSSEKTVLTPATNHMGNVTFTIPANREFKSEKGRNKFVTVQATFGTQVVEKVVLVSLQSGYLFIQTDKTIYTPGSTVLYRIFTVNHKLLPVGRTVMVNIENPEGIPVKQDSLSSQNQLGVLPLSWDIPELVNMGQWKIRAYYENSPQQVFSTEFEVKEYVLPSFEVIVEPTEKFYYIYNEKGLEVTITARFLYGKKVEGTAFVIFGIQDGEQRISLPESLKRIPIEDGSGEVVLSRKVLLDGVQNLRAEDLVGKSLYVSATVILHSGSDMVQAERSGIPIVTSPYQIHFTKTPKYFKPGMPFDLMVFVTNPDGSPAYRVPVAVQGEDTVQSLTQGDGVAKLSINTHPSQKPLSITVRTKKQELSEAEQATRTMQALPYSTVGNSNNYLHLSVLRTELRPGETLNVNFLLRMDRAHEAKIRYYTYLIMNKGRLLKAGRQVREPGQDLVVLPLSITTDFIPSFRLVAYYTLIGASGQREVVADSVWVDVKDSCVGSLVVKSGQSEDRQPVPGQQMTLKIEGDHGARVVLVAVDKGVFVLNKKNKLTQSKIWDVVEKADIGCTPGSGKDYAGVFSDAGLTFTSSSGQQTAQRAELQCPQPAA
# T1 sequence (P01024 749-1663, chain 2 of 2): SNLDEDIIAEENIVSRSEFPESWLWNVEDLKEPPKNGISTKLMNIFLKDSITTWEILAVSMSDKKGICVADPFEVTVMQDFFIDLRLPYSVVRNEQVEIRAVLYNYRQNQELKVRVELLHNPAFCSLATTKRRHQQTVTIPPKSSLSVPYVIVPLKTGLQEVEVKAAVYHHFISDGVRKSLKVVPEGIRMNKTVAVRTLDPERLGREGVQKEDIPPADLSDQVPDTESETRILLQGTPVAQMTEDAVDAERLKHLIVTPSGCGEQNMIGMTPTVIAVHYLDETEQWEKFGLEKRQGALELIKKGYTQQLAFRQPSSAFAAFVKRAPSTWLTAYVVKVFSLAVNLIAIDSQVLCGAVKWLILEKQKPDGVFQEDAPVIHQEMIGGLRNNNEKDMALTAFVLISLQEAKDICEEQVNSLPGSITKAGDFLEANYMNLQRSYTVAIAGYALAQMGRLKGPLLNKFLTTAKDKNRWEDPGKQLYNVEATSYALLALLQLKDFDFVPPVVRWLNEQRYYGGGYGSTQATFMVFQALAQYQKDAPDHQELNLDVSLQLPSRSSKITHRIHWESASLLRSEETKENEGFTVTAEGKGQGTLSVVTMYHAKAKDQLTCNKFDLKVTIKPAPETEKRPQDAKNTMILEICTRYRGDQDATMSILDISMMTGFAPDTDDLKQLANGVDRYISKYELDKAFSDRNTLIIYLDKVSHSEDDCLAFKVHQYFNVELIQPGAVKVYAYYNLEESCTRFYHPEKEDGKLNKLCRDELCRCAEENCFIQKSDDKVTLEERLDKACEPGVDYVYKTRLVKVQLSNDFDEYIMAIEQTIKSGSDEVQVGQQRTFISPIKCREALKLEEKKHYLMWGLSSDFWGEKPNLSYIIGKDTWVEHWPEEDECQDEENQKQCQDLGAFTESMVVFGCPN
# experiment: ELISA, C3b or C3 captured by anti-C3d antibody
# Procedure: The C3b antibodies were examined to determine whether they were selective for binding to C3b relative to the C3b precursor C3. Briefly, binding selectivity for C3b was determined by performing the following steps. […] Dilute Fabs at 100 nM and subsequent dilutions (or higher concentration) in diluent and plate 100 μl per well. […] Add 50 μl of Stop solution (2N Sulfuric Acid) to each well and read plate at 450 nm and correct for plastic reading at 570 nm.
Consider the following binders and their measured fold binding selectivity for C3b over C3 readings.

binder | fold binding selectivity for C3b over C3
MOR09609 IgG (antibody, V domains shown, Germlined human IgG1 with leucines 234 and 235 changed to alanines, kappa; also called antibody 9609) VH: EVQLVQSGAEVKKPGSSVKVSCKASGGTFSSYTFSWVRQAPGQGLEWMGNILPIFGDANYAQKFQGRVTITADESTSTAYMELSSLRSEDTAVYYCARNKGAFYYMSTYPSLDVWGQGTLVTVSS VL: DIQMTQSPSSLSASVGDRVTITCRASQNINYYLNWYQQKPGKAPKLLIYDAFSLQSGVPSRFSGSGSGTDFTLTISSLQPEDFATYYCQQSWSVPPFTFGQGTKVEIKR | > 1000 fold
MOR09612 IgG (antibody, V domains shown, Germlined human IgG1 with leucines 234 and 235 changed to alanines, kappa; also called antibody 9612) VH: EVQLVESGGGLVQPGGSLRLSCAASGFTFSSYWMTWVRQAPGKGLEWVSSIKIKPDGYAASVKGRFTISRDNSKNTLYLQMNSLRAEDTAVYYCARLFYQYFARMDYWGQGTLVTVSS VL: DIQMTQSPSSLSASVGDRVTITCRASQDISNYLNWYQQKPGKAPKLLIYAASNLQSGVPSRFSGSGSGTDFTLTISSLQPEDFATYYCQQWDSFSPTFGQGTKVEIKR | > 1000 fold
MOR09675 IgG (antibody, V domains shown, Germlined human IgG1 with leucines 234 and 235 changed to alanines, kappa; also called antibody 9675) VH: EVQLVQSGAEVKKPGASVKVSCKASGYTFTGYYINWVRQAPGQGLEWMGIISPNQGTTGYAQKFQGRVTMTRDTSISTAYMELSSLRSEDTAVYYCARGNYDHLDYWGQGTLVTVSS VL: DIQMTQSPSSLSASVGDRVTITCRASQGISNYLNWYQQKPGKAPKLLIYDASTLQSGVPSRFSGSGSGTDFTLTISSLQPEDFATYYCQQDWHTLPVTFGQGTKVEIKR | > 1000 fold
